Reference source for all entries: ChEMBL document CHEMBL3877272

Test: Antiproliferative activity against human Caov3 cells measured after 96 hrs by Celltiter-Glo assay
Type: functional, cell-based
Conditions: Caov-3, 96 h
experimental-readout: pIC50
When answering, recall that pIC50 equals minus log10 of the concentration in mol/L, and write that number alone.

# get_value(readout='pIC50', item= COc1ccc(-c2nsc3c2NC(=O)CC3c2cccc(Cl)c2)cc1 (stereo not drawn) )
5.88

// query: COc1ccc(-c2nsc3c2NC(=O)CC3c2cccc(OC)c2)cc1 (stereo not drawn)
5.83

// query: COc1ccc(-c2nsc3c2NC(=O)CC3c2ccc3c(c2)OCCO3)cc1 (stereo not drawn)
6.08

// query: COc1ccc(-c2nsc3c2NC(=O)CC3c2ccsc2)cc1 (stereo not drawn)
6.82

// query: O=C1CC(c2ccsc2)c2snc(-c3ccc(Cl)cc3)c2N1 (stereo not drawn)
5.97

// query: COc1ccc(/C=C\c2cc(OC)c(OC)c(OC)c2)cc1OP(=O)([O-])[O-].[Na+].[Na+] [FOSBRETABULIN DISODIUM]
7.88
